# target_desc: human PAH with the R408W mutation (Homo sapiens, UniProt P00439, R408W)
# Construct: expressed in transfected cells
# Sequence (P00439 whole entry R408W): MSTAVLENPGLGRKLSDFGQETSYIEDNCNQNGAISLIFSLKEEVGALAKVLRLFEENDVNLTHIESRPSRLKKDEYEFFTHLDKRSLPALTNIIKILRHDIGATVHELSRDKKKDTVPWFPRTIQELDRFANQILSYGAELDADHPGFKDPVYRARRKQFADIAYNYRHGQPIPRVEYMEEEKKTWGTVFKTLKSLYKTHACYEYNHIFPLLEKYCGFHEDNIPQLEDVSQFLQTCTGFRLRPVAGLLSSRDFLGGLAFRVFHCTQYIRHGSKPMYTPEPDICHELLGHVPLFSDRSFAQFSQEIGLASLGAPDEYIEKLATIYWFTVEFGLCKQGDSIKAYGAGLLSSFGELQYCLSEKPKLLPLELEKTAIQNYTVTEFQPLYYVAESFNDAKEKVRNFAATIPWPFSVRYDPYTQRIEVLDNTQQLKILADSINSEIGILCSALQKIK
# assay_comment: Cell Based Phenylalanine Flux Assay
# test_parameters: A375 R408W cells, 24 hrs with compound, then 20 μM sepiapterin and 800 μM 13C9,15N-Phenylalanine for 4 hours; 13C-Tyrosine by LC-MS; average where tested multiple times; read-out: AC50
assay_endpoint: AC50

- O=C(c1nnc(-c2cn[nH]c2)o1)N1CCc2[nH]cnc2C1c1ncc2ccccc2n1 (stereo not drawn): 1 to 5 µM

// CC(C)(O)c1ncc(C(=O)N2CCc3[nH]cnc3C2c2ccc3ccccc3n2)s1 (stereo not drawn) : AC50 value = > 5 µM

// Cc1c(-c2nnc(C(=O)N3C[C@@H](C)c4[nH]cnc4[C@@H]3c3cc4ccccc4cn3)o2)cnn1C : AC50 value = 1 to 5 µM

// O=C(c1cnc(C2CC2)o1)N1CCc2[nH]cnc2C1c1cn2ccccc2n1 (stereo not drawn) : AC50 value = 1 to 5 µM

// COCc1ccc2c(C(=O)N3CCc4[nH]cnc4C3c3ccc4ccccc4n3)cnn2c1 (stereo not drawn) : AC50 value = > 5 µM

// CC(C)(O)c1ccc2c(C(=O)N3CCc4[nH]cnc4C3c3ccc4ccccc4n3)cnn2c1 (stereo not drawn) : AC50 value = 1 to 5 µM

// Cc1nnc(C(=O)N2CC(C)(C)c3[nH]cnc3C2c2cc3ccccc3cn2)o1 (stereo not drawn) : AC50 value = 1 to 5 µM

// O=C(c1nnc(C2CC(F)(F)C2)o1)N1CCc2[nH]cnc2C1c1ccc2ccccc2n1 (stereo not drawn) : AC50 value = > 5 µM

// O=C(c1nnc(-c2cn[nH]c2)o1)N1CCc2[nH]cnc2C1c1ccc2ccccc2n1 (stereo not drawn) : AC50 value = 1 to 5 µM

====

# target_desc: human PAH with the R408W mutation (Homo sapiens, UniProt P00439, R408W)
# Construct: expressed in transfected cells
# assay_comment: Cell Based Phenylalanine Flux Assay
# Design: scale not given here
# test_parameters: A375 R408W cells, 24 hrs with compound, then 20 μM sepiapterin and 800 μM 13C9,15N-Phenylalanine for 4 hours; 13C-Tyrosine by LC-MS; average where tested multiple times
assay_endpoint: AC50

* Cc1nc(C(F)(F)F)c(C(=O)N2CCc3nc[nH]c3[C@H]2c2cn3ccccc3n2)o1 (single isomer, unassigned) | E, E
* O=C(c1oc(-c2ccc(F)cn2)nc1C(F)F)N1CCc2[nH]cnc2C1c1ncc2ccccc2n1 (stereo not drawn) | E, E
* CC1CN(C(=O)c2oc(C(C)(C)O)nc2C(F)(F)F)C(c2cc3ccccc3cn2)c2nc[nH]c21 [(4R, 7S) diastereomer of (2-(2-hydroxypropan-2-yl)-4-(triflu] | E, E,

====

# target_desc: human PAH with the R408W mutation (Homo sapiens, UniProt P00439, R408W)
# Construct: expressed in transfected cells
# assay_comment: Cell Based Phenylalanine Flux Assay
# test_parameters: A375 R408W cells, 24 hrs with compound, then 20 μM sepiapterin and 800 μM 13C9,15N-Phenylalanine for 4 hours; 13C-Tyrosine by LC-MS; average where tested multiple times; read-out: AC50
assay_endpoint: AC50

Some solved cases for reference:
• O=C(c1cnn2ccccc12)N1CCc2[nH]cnc2C1c1ccc2ccccc2n1 (stereo not shown) = 1 to 5 µM
• O=C(c1cnco1)N1CCc2[nH]cnc2C1c1ccc2ccccc2n1 (stereo not shown) = 1 to 5 µM
• Cc1nnc(C(=O)N2CCc3[nH]cnc3C2c2cc3ccccc3nn2)o1 (stereo not shown) = > 5 µM

// O=C(c1cncs1)N1CCc2[nH]cnc2C1c1cn2ccccc2n1 (stereo not shown) : AC50 value = > 5 µM

// CC(C)(O)c1nc(C2CC2)c(C(=O)N2CCc3[nH]cnc3C2c2ccc3ccccc3n2)o1 (stereo not shown) : AC50 value = 1 to 5 µM

// O=C(c1ccn2ncccc12)N1CCc2[nH]cnc2C1c1ccc2ccccc2n1 (stereo not shown) : AC50 value = 1 to 5 µM

// CC1CN(C(=O)c2nnc(-c3cnn(C)c3)o2)C(c2cc3ccccc3cn2)c2nc[nH]c21 (stereo not shown) : AC50 value = 1 to 5 µM

// O=C(c1nnc(CCNC2CC2)o1)N1CCc2[nH]cnc2C1c1ccc2ccccc2n1 (stereo not shown) : AC50 value = > 5 µM

// O=C(c1nnc(-c2ccc(C(F)(F)F)cn2)o1)N1CCc2[nH]cnc2C1c1ccc2ccccc2n1 (stereo not shown) : AC50 value = > 5 µM

// CC1CN(C(=O)c2nnc(N3CCOCC3)o2)C(c2cc3ccccc3cn2)c2nc[nH]c21 (stereo not shown) : AC50 value = 1 to 5 µM

====

AC50 reference
# target_desc: human PAH with the R408W mutation (Homo sapiens, UniProt P00439, R408W)
# Construct: expressed in transfected cells
# assay_comment: Cell Based Phenylalanine Flux Assay
# test_parameters: A375 cells expressing human R408W PAH; 24 hrs compound incubation; 13C-Tyrosine by LC-MS; average where tested multiple times; read-out: AC50

Some solved cases for reference:
* O=C(c1ocnc1C(F)(F)F)N1CCc2[nH]cnc2[C@@H]1c1cn2ccccc2n1 [Example 233] | > 5000 nM
* Cc1ncoc1C(=O)N1CCc2[nH]cnc2[C@H]1c1cn2ccccc2n1 [Example 228] | 1000 to 5000 nM
* Cc1nc(-c2ccccn2)oc1C(=O)N1C[C@H](C)c2[nH]cnc2[C@H]1c1cc2ccccc2cn1 [Example 403] | < 500 nM
* CC(C)(O)c1nc(C(F)F)c(C(=O)N2CCc3[nH]cnc3[C@H]2c2cc3ccccc3nn2)o1 [Example 209] | < 500 nM
* CC(C)(F)c1ncc(C(=O)N2CCc3[nH]cnc3[C@@H]2c2cc3ccccc3cn2)o1 [Example 338] | > 5000 nM
* O=C(c1nnc(-c2c(F)cccc2F)o1)N1CCc2[nH]cnc2[C@@H]1c1ccc2ccccc2n1 [Example 24] | > 5000 nM
* O=C(c1oc(-c2ccccn2)nc1C1CC1)N1CCc2[nH]cnc2C1c1ccc2ccccc2n1 (stereo in doubt) [Example 43] | < 500 nM

From here, focus on the item given below.
// O=C(CCc1nccs1)N1CCc2[nH]cnc2C1c1ccc2ccccc2n1 (stereo in doubt) [Example 271] : AC50 value = 500 to 1000 nM

====

# target_desc: human PAH with the R408W mutation (Homo sapiens, UniProt P00439, R408W)
# Construct: expressed in transfected cells
# assay_comment: Cell Based Phenylalanine Flux Assay
# test_parameters: A375 R408W cells, 24 hrs with compound, then 20 μM sepiapterin and 800 μM 13C9,15N-Phenylalanine for 4 hours; 13C-Tyrosine by LC-MS; average where tested multiple times; read-out: AC50
assay_endpoint: AC50

- FC(F)c1nnc(N2CCc3[nH]cnc3C2c2cc3ccccc3cn2)o1 (centres unmarked): > 5 µM

// O=C(c1nnc(N2CC(F)C2)o1)N1CCc2[nH]cnc2C1c1ccc2ccccc2n1 (centres unmarked) : AC50 value = 1 to 5 µM

// COCc1ccc2c(C(=O)N3CC(C)c4[nH]cnc4C3c3cc4ccccc4cn3)cnn2c1 (centres unmarked) : AC50 value = 1 to 5 µM

// Cc1nnc(C(=O)N2CCc3[nH]cnc3C2c2ccc3ccccc3n2)o1 (centres unmarked) : AC50 value = 1 to 5 µM

// CN(C)c1nnc(C(=O)N2CCc3[nH]cnc3C2c2ncc3ccccc3n2)o1 (centres unmarked) : AC50 value = > 5 µM

====

AC50 reference
# target_desc: human PAH with the R408W mutation (Homo sapiens, UniProt P00439, R408W)
# Construct: expressed in transfected cells
# assay_comment: Cell Based Phenylalanine Flux Assay
# test_parameters: A375 cells expressing human R408W PAH; 24 hrs compound incubation; 13C-Tyrosine by LC-MS; average where tested multiple times; read-out: AC50

Some solved cases for reference:
• Cc1ncc(CC(=O)N2CCc3[nH]cnc3[C@H]2c2cc3ccccc3cn2)o1 = < 500 nM
• C[C@H]1CN(C(=O)c2cnc(C(C)(C)O)o2)[C@@H](c2cc3ccccc3cn2)c2nc[nH]c21 = 1000 to 5000 nM
• CC(C)(O)c1nnc(C(=O)N2CCc3[nH]cnc3C2c2ccc3ccccc3n2)o1 (stereo in doubt) [Example 27] = > 5000 nM
• O=C(c1nnc(-c2cnn(CC(F)(F)F)c2)o1)N1CCc2[nH]cnc2[C@H]1c1ccc2ccccc2n1 (single isomer, unassigned) = 500 to 1000 nM
• COCc1nc(C(F)F)c(C(=O)N2CCc3[nH]cnc3C2c2ccc3ccccc3n2)o1 (stereo in doubt) [Example 77] = < 500 nM
• Cc1nc(C2(O)CCC2)oc1C(=O)N1CCc2[nH]cnc2C1c1ccc2ccccc2n1 (stereo in doubt) [Example 101] = 500 to 1000 nM

From here, focus on the item given below.
// CN(C)c1nnc(C(=O)N2CCc3[nH]cnc3[C@H]2c2cc3ccccc3cn2)o1 : AC50 value = < 500 nM

====

AC50 reference
# target_desc: human PAH with the R408W mutation (Homo sapiens, UniProt P00439, R408W)
# Construct: expressed in transfected cells
# assay_comment: Cell Based Phenylalanine Flux Assay
# test_parameters: A375 cells expressing human R408W PAH; 24 hrs compound incubation; 13C-Tyrosine by LC-MS; average where tested multiple times; read-out: AC50

• O=C(c1nnc(-c2ccc(F)cc2)o1)N1CCc2[nH]cnc2[C@@H]1c1cc2ccccc2cn1 = > 5000 nM
• O=C(c1ccnn1C(F)F)N1CCc2[nH]cnc2[C@H]1c1cc2ccccc2nn1 = < 500 nM
• O=C(C1CC1)N1CCc2[nH]cnc2[C@@H]1c1cc2ccccc2nn1 = 1000 to 5000 nM

// O=C(Cc1nc(C(F)(F)F)cs1)N1CCc2[nH]cnc2[C@H]1c1cc2ccccc2cn1 : AC50 value = < 500 nM

// O=C(c1cnn2cc(-c3ccncc3)ccc12)N1CCc2[nH]cnc2[C@H]1c1cc2ccccc2cn1 : AC50 value = < 500 nM

// O=C(c1cnc(-c2cnn(CC(F)(F)F)c2)o1)N1CCc2[nH]cnc2[C@@H]1c1cc2ccccc2cn1 : AC50 value = > 5000 nM

// O=C(Cc1cnn2ccccc12)N1CCc2[nH]cnc2[C@H]1c1cc2ccccc2cn1 : AC50 value = < 500 nM

// Cc1nc(C(C)(C)O)oc1C(=O)N1C[C@@H](C)c2[nH]cnc2[C@H]1c1cc2ccccc2cn1 : AC50 value = 500 to 1000 nM

// CC(C)(C)c1ncc(C(=O)N2CCc3[nH]cnc3[C@H]2c2cn3ccccc3n2)s1 : AC50 value = 500 to 1000 nM

// C[C@H]1CN(C(=O)c2ocnc2C2CC2)[C@@H](c2cc3ccccc3cn2)c2nc[nH]c21 : AC50 value = 1000 to 5000 nM

// CC(C)(C)c1ncc(C(=O)N2CCc3[nH]cnc3C2c2ccc3ccccc3n2)s1 (stereo in doubt) [Example 3] : AC50 value = < 500 nM

// O=C(c1nnc(-c2cnn(C(F)F)c2)o1)N1CCc2[nH]cnc2[C@H]1c1cc2ccccc2cn1 : AC50 value = < 500 nM
